target.or.system: NRAS WT (Homo sapiens, UniProt P01111+P62937)
Sequence (P01111 whole entry, one chain of several): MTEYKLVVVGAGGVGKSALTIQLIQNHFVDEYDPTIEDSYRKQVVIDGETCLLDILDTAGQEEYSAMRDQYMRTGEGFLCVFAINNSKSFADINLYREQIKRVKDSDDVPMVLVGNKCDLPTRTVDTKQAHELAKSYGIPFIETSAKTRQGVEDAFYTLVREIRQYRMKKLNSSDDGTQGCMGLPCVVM
measurement.description: Ras-Raf disruption / FRET / MOA assay (BRAF RBD)
Assay type: biochemical
measured.quantity: IC50

compound	measured.quantity	observed.measurement
CCn1c(-c2cccnc2[C@H](C)OC)c2c3cc(ccc31)-c1cc(cc(C(F)F)c1)C[C@H](NC(=O)[C@H](C1CCCC1)N(C)C(=O)CN(C)C(=O)[C@@H]1N[C@@H]1C1CC1)C(=O)N1CCC[C@H](N1)C(=O)OCC(C)(C)C2	IC50	1000 to 10000 nM
CCn1c(-c2cccnc2[C@H](C)OC)c2c3cc(ccc31)-c1cc(O)cc(c1)C[C@H](NC(=O)[C@H](C(C)C)N(C)C(=O)CN(C)C(=O)[C@@H]1N[C@@H]1C1COC1)C(=O)N1CCC[C@H](N1)C(=O)OCC(C)(C)C2	IC50	10 to 100 nM
CC[C@H]1N[C@H]1C(=O)N(C)CC(=O)N(C)[C@H](C(=O)N[C@H]1Cc2cc(O)cc(c2)-c2ccc3c(c2)c(c(-c2cccnc2[C@H](C)OC)n3CC)CC(C)(C)COC(=O)[C@@H]2CCCN(N2)C1=O)C(C)C	IC50	10 to 100 nM
CCn1c(-c2cccnc2[C@H](C)OC)c2c3cc(ccc31)-c1cc(O)cc(c1)C[C@H](NC(=O)[C@H](C(C)C)N(C)C(=O)[C@]13C[C@H]1CCN3C(=O)[C@@H]1CN1)C(=O)N1CCC[C@H](N1)C(=O)OCC(C)(C)C2	IC50	100 to 1000 nM
CCn1c(-c2cccnc2[C@H](C)OC)c2c3cc(ccc31)-c1cc(O)cc(c1)C[C@H](NC(=O)[C@H](C(C)C)N(C)C(=O)CN(C)C(=O)[C@H]1CN1C1COC1)C(=O)N1CCC[C@H](N1)C(=O)OCC(C)(C)C2 (stereo partly shown)	IC50	100 to 1000 nM

Now consider the entry below.
Param item = CCn1c(-c2cccnc2[C@H](C)OC)c2c3cc(ccc31)-c1cc(O)cc(c1)C[C@H](NC(=O)[C@H](C(C)C)N(C)C(=O)C13CCC(CC1)N3C(=O)[C@H]1CN1)C(=O)N1CCC[C@H](N1)C(=O)OCC(C)(C)C2 ; retrieve measured IC50. 100 to 1000 nM

###

target.or.system: KRAS G12V (Homo sapiens, UniProt P01116+P62937, G12V)
Sequence (P01116 1-169 isoform P01116-2 G12V limits assumed): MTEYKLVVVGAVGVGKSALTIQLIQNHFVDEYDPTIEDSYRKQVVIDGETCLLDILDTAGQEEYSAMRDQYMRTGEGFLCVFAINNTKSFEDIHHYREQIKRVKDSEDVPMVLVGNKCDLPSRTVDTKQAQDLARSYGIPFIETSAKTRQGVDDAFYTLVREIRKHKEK
Sequence (P62937 whole entry): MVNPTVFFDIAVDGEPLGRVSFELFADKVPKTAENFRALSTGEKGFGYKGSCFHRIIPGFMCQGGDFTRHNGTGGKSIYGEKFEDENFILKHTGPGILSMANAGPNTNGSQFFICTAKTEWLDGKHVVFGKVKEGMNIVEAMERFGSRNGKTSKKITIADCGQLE
measurement.description: Disruption of BRAF RBD interaction with Ras (FRET / MOA assay, with Cyclophilin A)
Format: biochemical
settings: KRAS G12V; read-out: KRAS G12V FRET data IC50
Source text: This protocol may also be executed substituting other Ras proteins or nucleotides. The purpose of this biochemical assay was to measure the ability of test compounds to facilitate ternary complex formation between a nucleotide-loaded K-Ras isoform and Cyclophilin A; the resulting ternary complex disrupts binding to a BRAF^RBD construct, inhibiting K-Ras signaling through a RAF effector. Data is reported as IC50 values. […]
This section presents compounds with their documented IC50 values.

Past entries and their recorded results:
compound	observed.measurement
CCn1c(-c2cnccc2COC)c2c3cc(ccc31)-c1cc(O)cc(c1)C[C@H](NC(=O)[C@H](C(C)C)N1CCCCC1=O)C(=O)N1CCC[C@H](N1)C(=O)OCC(C)(C)C2 [Example A44]	100 to 1000 nM
CCn1c(-c2cc(N3CCN(C)CC3)cnc2[C@H](C)OC)c2c3cc(ccc31)-c1csc(n1)C[C@H](NC(=O)[C@H](C(C)C)N(C)C(=O)[C@@H]1OCC[C@@H]1c1ccccc1)C(=O)N1CCC[C@H](N1)C(=O)OCC(C)(C)C2 (atropisomer, axis not shown) [Example A583]	100 to 1000 nM
CCn1c(-c2cccnc2[C@H](C)OC)c2c3cc(ccc31)-c1csc(n1)C[C@H](NC(=O)[C@H](C(C)C)N(C)C(=O)N1CCC3(CN(C)C3)C1)C(=O)N1CCC[C@H](N1)C(=O)OCC(C)(C)C2 (atropisomer, axis not shown) [Example A503]	100 to 1000 nM
C=CC(=O)N1CC[C@H](C(=O)N(C)[C@H](C(=O)N[C@H]2Cc3nsc(n3)-c3ccc4c(c3)c(c(-c3cccnc3[C@H](C)OC)n4CC)CC(C)(C)COC(=O)[C@@H]3CCCN(N3)C2=O)C(C)C)C1 (atropisomer, axis not shown) [Example A694]	1000 to 10000 nM

Param item = CO[C@@H](COC1CN(C(=O)C#CC(C)(C)N(C)C)C1)C(=O)N[C@H]1Cc2cccc(c2)-c2ccc3c(c2)c(c(-c2cccnc2[C@H](C)OC)n3CC(F)(F)F)CC(C)(C)COC(=O)[C@@H]2CCCN(N2)C1=O [Example A556] ; retrieve measured IC50. 1000 to 10000 nM

Then this compound: CCn1c(-c2cnccc2COC)c2c3cc(ccc31)-c1cc(O)cc(c1)C[C@H](NC(=O)[C@H](C(C)C)N1COCC1=O)C(=O)N1CCC[C@H](N1)C(=O)OCC(C)(C)C2 [Example A102] 100 to 1000 nM

Then this compound: CCn1c(-c2cccnc2[C@H](C)OC)c2c3cc(ccc31)-c1cc(O)cc(c1)C[C@H](NC(=O)[C@H](C(C)C)N(C)C(=O)[C@H]1C[C@H]1F)C(=O)N1CCC[C@H](N1)C(=O)OCC(C)(C)C2 [Example A162] 10 to 100 nM

Then this compound: CCn1c(-c2cccnc2[C@H](C)OC)c2c3cc(ccc31)-c1csc(n1)C[C@H](NC(=O)[C@H](C(C)C)N(C)C(=O)[C@H]1CCN(C(=O)CN)C1)C(=O)N1CCC[C@H](N1)C(=O)OCC(C)(C)C2 [Example A106] 1000 to 10000 nM

Then this compound: CCn1c(-c2cccnc2[C@H](C)OC)c2c3cc(ccc31)-c1csc(n1)C[C@H](NC(=O)[C@H](C(C)C)N(C)C(=O)N1CC(n3nc(C)cc3C)C1)C(=O)N1CCC[C@H](N1)C(=O)OCC(C)(C)C2 [Example A297] 100 to 1000 nM

Then this compound: CCn1c(-c2cccnc2[C@H](C)OC)c2c3cc(ccc31)-c1cc(sn1)C[C@H](NC(=O)[C@H](C(C)C)N(C)C(=O)[C@@H]1CCN(C(=O)C#CCN3CCOCC3)C1)C(=O)N1CCC[C@H](N1)C(=O)OCC(C)(C)C2 [Example A201] > 10000 nM

###

This section presents compounds with their documented IC50 values.
target.or.system: KRAS G12D (Homo sapiens, UniProt P01116+P62937, G12D)
Sequence (P01116 1-169 isoform P01116-2 G12D limits assumed, one chain of several): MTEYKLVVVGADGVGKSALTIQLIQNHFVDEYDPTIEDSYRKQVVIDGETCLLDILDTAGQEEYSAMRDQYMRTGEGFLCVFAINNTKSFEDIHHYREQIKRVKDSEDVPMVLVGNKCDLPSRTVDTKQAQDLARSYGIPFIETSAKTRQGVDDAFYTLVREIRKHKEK
measurement.description: Ras-Raf disruption / FRET / MOA assay (BRAF RBD)
Format: biochemical
settings: Ras-Raf disruption, with Cyclophilin A; read-out: KRAS G12D FRET data IC50

compound	target.or.system	measured.quantity	observed.measurement
CCn1c(-c2cccnc2[C@H](C)OC)c2c3cc(ccc31)-c1csc(n1)C[C@H](NC(=O)[C@H](C(C)C)N(C)C(=O)N1CC[C@H](N(C)C(=O)[C@H]3CN3)C1)C(=O)N1CCC[C@H](N1)C(=O)OCC(C)(C)C2 (atropisomer, axis not shown) [Example 228]	KRAS G12D (Homo sapiens, UniProt P01116+P62937, G12D)	IC50	1000 to 10000 nM
CCn1c(-c2cccnc2[C@H](C)OC)c2c3cc(ccc31)-c1cc(O)cc(c1)C[C@H](NC(=O)[C@H](C(C)C)N1CCC3(CCN(C(=O)[C@@H]4CN4)C3)C1=O)C(=O)N1CCC[C@H](N1)C(=O)OCC(C)(C)C2 (stereo partly drawn) [Example 113]	KRAS G12D (Homo sapiens, UniProt P01116+P62937, G12D)	IC50	10 to 100 nM
CCn1c(-c2cccnc2[C@H](C)OC)c2c3cc(ccc31)-c1cc(O)cc(c1)C[C@H](NC(=O)[C@H](C(C)C)N(C)C(=O)[C@H]1CCN(S(=O)(=O)[C@H]3CN3C)C1)C(=O)N1CCC[C@H](N1)C(=O)OCC(C)(C)C2 (single isomer, unassigned) [Example 57]	KRAS G12D (Homo sapiens, UniProt P01116+P62937, G12D)	IC50	1000 to 10000 nM
CCn1c(-c2cccnc2[C@H](C)OC)c2c3cc(ccc31)-c1csc(n1)C[C@H](NC(=O)[C@H](C(C)C)N(C)C(=O)N1CC(CN(C)C(=O)[C@H]3CN3)C1)C(=O)N1CCC[C@H](N1)C(=O)OCC(C)(C)C2 (atropisomer, axis not shown) [Example 224]	KRAS G12D (Homo sapiens, UniProt P01116+P62937, G12D)	IC50	100 to 1000 nM
CCn1c(-c2cccnc2[C@H](C)OC)c2c3cc(ccc31)-c1cc(O)cc(c1)C[C@H](NC(=O)[C@H](C(C)C)N(C)C(=O)[C@H]1C[C@H]3CC[C@@H](C1)N3C(=O)[C@@H]1CN1)C(=O)N1CCC[C@H](N1)C(=O)OCC(C)(C)C2 (atropisomer, axis not shown) [Example 246]	KRAS G12D (Homo sapiens, UniProt P01116+P62937, G12D)	IC50	1000 to 10000 nM
CCn1c(-c2cccnc2[C@H](C)OC)c2c3cc(ccc31)-c1csc(n1)C[C@H](NC(=O)[C@H](C(C)C)N(C)C(=O)N(C)[C@H]1CCCN(C(=O)[C@H]3CN3)C1)C(=O)N1CCC[C@H](N1)C(=O)OCC(C)(C)C2 (atropisomer, axis not shown) [Example 295]	KRAS G12D (Homo sapiens, UniProt P01116+P62937, G12D)	IC50	1000 to 10000 nM
CCn1c(-c2cccnc2[C@H](C)OC)c2c3cc(ccc31)-c1csc(n1)C[C@H](NC(=O)[C@H](C(C)C)N(C)C(=O)N1CCCN(C(=O)[C@H]3CN3)CC1)C(=O)N1CCC[C@H](N1)C(=O)OCC(C)(C)C2 (atropisomer, axis not shown) [Example 222]	KRAS G12D (Homo sapiens, UniProt P01116+P62937, G12D)	IC50	100 to 1000 nM
CCn1c(-c2cccnc2[C@H](C)OC)c2c3cc(ccc31)-c1cc(O)cc(c1)C[C@H](NC(=O)[C@H](C(C)C)N(C)C(=O)[C@H]1CCN(C(=O)[C@H]3CN3)C1)C(=O)N1CCC[C@H](N1)C(=O)OCC(C)(C)C2 (single isomer, unassigned) [Example 43A]	KRAS G12D (Homo sapiens, UniProt P01116+P62937, G12D)	IC50	10 to 100 nM

Param item = CCn1c(-c2cccnc2[C@H](C)OC)c2c3cc(ccc31)-c1cc(O)cc(c1)C[C@H](NC(=O)[C@H](C(C)C)N(C)C(=O)c1ccc([C@@H]3CN3)nc1)C(=O)N1CCC[C@H](N1)C(=O)OCC(C)(C)C2 [Example 87] ; retrieve measured IC50. 1000 to 10000 nM

Then this compound: CCn1c(-c2cccnc2[C@H](C)OC)c2c3cc(ccc31)-c1csc(n1)C[C@H](NC(=O)[C@H](C(C)C)N(C)C(=O)N1CCN(C(=O)[C@@H]3CN3)[C@H](C)C1)C(=O)N1CCC[C@H](N1)C(=O)OCC(C)(C)C2 [Example 300] 100 to 1000 nM

Then this compound: CCn1c(-c2cccnc2[C@H](C)OC)c2c3cc(ccc31)-c1csc(n1)C[C@H](NC(=O)[C@H](C(C)C)N(C)C(=O)N1CC[C@H]1CN(C)C(=O)[C@@H]1CN1)C(=O)N1CCC[C@H](N1)C(=O)OCC(C)(C)C2 [Example 235] 1000 to 10000 nM

Then this compound: CCn1c(-c2cccnc2[C@H](C)OC)c2c3cc(ccc31)-c1csc(n1)C[C@H](NC(=O)[C@H](C(C)C)N(C)C(=O)N1CC(N(C)C(=O)[C@H]3CN3)C1)C(=O)N1CCC[C@H](N1)C(=O)OCC(C)(C)C2 [Example 218] 1000 to 10000 nM

Then this compound: CCn1c(-c2cccnc2[C@H](C)OC)c2c3cc(ccc31)-c1cc(O)cc(c1)C[C@H](NC(=O)[C@H](C(C)C)N(C)C(=O)N1CC(NC(=O)[C@@H]3CN3)C1)C(=O)N1CCC[C@H](N1)C(=O)OCC(C)(C)C2 (atropisomer, axis not shown) [Example 188] 100 to 1000 nM

Then this compound: CCn1c(-c2cccnc2[C@H](C)OC)c2c3cc(ccc31)-c1cc(O)cc(c1)C[C@H](NC(=O)[C@H](C(C)C)N(C)C(=O)[C@H]1CCN(C(=O)C3OC3c3ccccc3)C1)C(=O)N1CCC[C@H](N1)C(=O)OCC(C)(C)C2 (stereo partly drawn) [Example 331] 100 to 1000 nM

Then this compound: CCn1c(-c2cccnc2[C@H](C)OC)c2c3cc(ccc31)-c1csc(n1)C[C@H](NC(=O)[C@H](C(C)C)N(C)C(=O)N1CCN(C(=O)[C@H]3CN3)C[C@H]1C)C(=O)N1CCC[C@H](N1)C(=O)OCC(C)(C)C2 [Example 301] 100 to 1000 nM
